assay: chemical genetic growth profiling, strain panel (AID 1159580);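 note: tested at 20 µM; growth read once vehicle control cultures reached saturation at 30 °C; 1 = growth at the plate median or of vehicle wells; lower values mean less growth of the strain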; details: S. cerevisiae deletion strains, growth OD, locus YDR001C, strain nth1
The campaign covered roughly 5,500 compounds. About 2,000 (36%) were called active. Not shown: some 18% with an inconclusive outcome. Cut-off read from the data, not from the text of the source: active = normalized growth mostly below about 0.91 (no sharp cut-off); inconclusive = no clear call, values can overlap the other calls; inactive = mostly above about 0.92. The list shows a part of the results.
Possible outcomes: yes for active, no for inactive

{"columns": ["molecule", "label.class"],
 "data": [
  ["CC(Cc1ccc(O)c(O)c1)(NN)C(=O)O (stereo not drawn)", "no"],
  ["C[C@]12CCC3c4ccc(OS(=O)(=O)O)cc4CCC3C1CCC2=O (stereo partly drawn)", "no"],
  ["Nc1ccc(S(=O)(=O)Nc2nccs2)cc1", "no"],
  ["COc1cc(/C=C/C(=O)O)cc(OC)c1OC", "no"],
  ["O=C(O)c1ccc2c(c1)OCO2", "no"],
  ["C[C@](N)(Cc1ccc(O)cc1)C(=O)O", "no"],
  ["COc1cc(/C=C/C(=O)O)ccc1O", "no"],
  ["Nc1nccs1", "no"],
  ["c1cc2c(cc1[C@H]1OC[C@H]3[C@@H]1CO[C@H]3c1ccc3c(c1)OCO3)OCO2", "yes"],
  ["CCCN(CCC)CCc1cccc2c1CC(=O)N2", "no"],
  ["CCOP(=S)(OCC)Oc1ccc2c(C)c(Cl)c(=O)oc2c1", "no"],
  ["COc1ccc(/C=C/C(=O)O)cc1OC", "no"],
  ["CCOc1ccc2c(c1)C(C)=CC(C)(C)N2", "no"]
]}

----------
assay: chemical genetic growth profiling, strain panel (AID 1159580);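 note: tested at 20 µM; growth read once vehicle control cultures reached saturation at 30 °C; 1 = growth at the plate median or of vehicle wells; lower values mean less growth of the strain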; conditions: S. cerevisiae deletion strains, growth OD, locus YPL241C, strain CIN2, hits give low values
The campaign covered roughly 5,500 compounds. About 2,000 (36%) were called active. Not shown: some 18% with an inconclusive outcome. Some of the results follow.
// values below are reported normalized growth
measurement.name: normalized growth

{"columns": ["compound", "measurement.name", "reported.value"],
 "data": [
  ["O=C(O)CCCCC1SCC2NC(=O)NC21 (configuration not stated)", "normalized growth", "1.01 (inactive)"],
  ["Brc1c(NC2=NCCN2)ccc2nccnc12", "normalized growth", "1 (inactive)"],
  ["S=c1[nH]c2ccccc2s1", "normalized growth", "0.998 (inactive)"],
  ["S=c1[nH]c2ccccc2[nH]1", "normalized growth", "1.03 (inactive)"],
  ["CCOC(=O)c1cc(-c2ccc(N)cc2)oc1C", "normalized growth", "0.483 (active)"],
  ["CC1(C)C2CC(=O)O[C@@]3(C)C4=CC(=O)O[C@@H](c5ccoc5)[C@]4(C)CCC3[C@@]2(C)C=C[C@H]1O (some centres not stated)", "normalized growth", "1.01 (inactive)"],
  ["c1ccc2[nH]c(-c3cscn3)nc2c1", "normalized growth", "0.0871 (active)"]
]}

----------
// values below are reported normalized growth
assay: chemical genetic growth profiling, strain panel (AID 1159580);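 note: tested at 20 µM; growth read once vehicle control cultures reached saturation at 30 °C; 1 = growth at the plate median or of vehicle wells; lower values mean less growth of the strain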; conditions: S. cerevisiae deletion strains, growth OD, locus YNL128W, strain TEP1, hits give low values
Out of some 5,500 compounds screened, about 2,000 (36%) were called active. Another 18% or so got no clear call; they are omitted. This is one part of the list.
measurement.name: normalized growth

{"columns": ["compound", "reported.value"],
 "data": [
  ["COc1cc(C(=O)O)c(O)c2c1OCO2", 1.02],
  ["CSc1nc2ccc(NC(=O)c3c(-c4ccccc4)noc3C)cc2s1", 1],
  ["Nc1ccc(S(=O)(=O)Nc2nccs2)cc1", 1.01],
  ["CCCN1CCOC2c3cc(O)ccc3OCC21 (stereo unspecified)", 0.993],
  ["OC[C@H]1O[C@@H](n2cnc3cncnc32)[C@H](O)[C@@H]1O", 1.03],
  ["CCCSP(=O)(OCC)SCCC", 1.03],
  ["CN=C1CN(O)C(c2ccccc2)=c2cc(Cl)ccc2=N1", 0.966],
  ["COc1ccccc1N1CCN(CCCNc2c(C)c(=O)n(C)c(=O)n2C)CC1", 1],
  ["COc1cc(N=Cc2ccc3c(c2)OCO3)c(OC)cc1Cl", 1.01],
  ["O=C(/C=C/c1ccc(O)c(O)c1)O[C@@H]1C[C@](O)(C(=O)O)C[C@@H](O)[C@H]1O", 1.04],
  ["CCOP(=S)(OCC)SCCSCC", 0.945],
  ["COc1ccc(C[C@H](N)C(=O)N[C@@H]2[C@@H](CO)OC(n3cnc4c(N(C)C)ncnc43)[C@@H]2O)cc1 (stereo partly specified)", 1.01],
  ["CCOP(=S)(OCC)SCSP(=S)(OCC)OCC", 0.918],
  ["C=CCN1CCc2cccc3c2[C@H]1Cc1ccc(O)c(O)c1-3", 0.888],
  ["c1ccc(CSC2=NCCCN2)cc1", 1.02],
  ["OC/C=C/c1ccc(O)c(O)c1", 0.966],
  ["CC1=C(/C=C/C(C)=C/C=C/C(C)=C/C(=O)O)C(C)(C)CCC1", 1.02],
  ["CC[C@@H](C(=O)[C@@H](C)[C@@H](O)[C@H](C)[C@@H]1O[C@@H]([C@@H](CC)C(=O)O)CC[C@@H]1C)[C@H]1OC2(C=C[C@@H](O)[C@]3(CC[C@@](C)([C@H]4CC[C@](O)(CC)[C@H](C)O4)O3)O2)[C@H](C)C[C@@H]1C (stereo partly specified)", 0.969],
  ["C=CCN1CC[C@]23c4c5ccc(O)c4OC2C(=O)CC[C@@]3(O)[C@H]1C5 (stereo partly specified)", 1.01],
  ["C/C(=N/OC(=O)c1ccc(Cl)cc1)c1ccc(F)cc1", 0.943],
  ["COC(=O)c1ccc([N+](=O)[O-])cc1Cl", 0.985],
  ["CN(C)CCCO[C@H]1[C@@H](C(O)CO)OC2OC(C)(C)O[C@@H]21 (stereo partly specified)", 1],
  ["CC1=C(/C=C/C(C)=C/C=C/C(C)=C/C(=O)Nc2ccc(O)cc2)C(C)(C)CCC1", 1.02],
  ["CC(Cc1ccc(OCC(=O)O)cc1)NCC(O)c1cccc(Cl)c1 (stereo unspecified)", 1.02],
  ["CC[C@@H](C(=O)O)[C@@H]1O[C@@H]([C@@H](C)[C@H](O)[C@H](C)C(=O)[C@H](CC)[C@H]2O[C@]3(C=C[C@@H](O)[C@]4(CC[C@@](C)(C5CC[C@](O)(CC)[C@H](C)O5)O4)O3)[C@H](C)C[C@@H]2C)[C@@H](C)C[C@H]1C (stereo partly specified)", 0.377],
  ["CCOC(N)=O", 1.01]
]}
